Give measured IC50 for each item. Keep answers brief.
Biological target: CDK6 (Homo sapiens)
Construct: purchased Carna Company
Sequence (Q00534 whole entry): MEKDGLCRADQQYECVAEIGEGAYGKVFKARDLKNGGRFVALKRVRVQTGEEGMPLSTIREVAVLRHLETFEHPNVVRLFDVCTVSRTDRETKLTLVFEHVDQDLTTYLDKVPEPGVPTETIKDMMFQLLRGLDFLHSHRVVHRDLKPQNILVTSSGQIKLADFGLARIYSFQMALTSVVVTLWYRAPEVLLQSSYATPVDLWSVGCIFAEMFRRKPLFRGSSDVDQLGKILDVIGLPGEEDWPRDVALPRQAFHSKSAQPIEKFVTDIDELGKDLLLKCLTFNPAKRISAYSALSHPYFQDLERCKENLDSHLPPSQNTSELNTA
Sequence (P30281 whole entry partner): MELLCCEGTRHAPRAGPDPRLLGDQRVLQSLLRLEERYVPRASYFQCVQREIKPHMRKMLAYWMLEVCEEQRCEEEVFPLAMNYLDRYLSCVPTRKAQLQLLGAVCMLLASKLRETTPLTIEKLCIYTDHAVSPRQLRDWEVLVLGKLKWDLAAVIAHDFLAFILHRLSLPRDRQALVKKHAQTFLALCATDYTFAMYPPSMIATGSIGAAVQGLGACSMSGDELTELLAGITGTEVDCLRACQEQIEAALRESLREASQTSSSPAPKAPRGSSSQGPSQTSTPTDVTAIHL
Experiment: CDK enzymology experiment in vitro, capillary mobility shift assay (MSA)
Type: biochemical
Conditions: read-out: CDK6 (nM) inhibitory IC50
Source text: CDK1/CDK2/CDK4/CDK6/CDK7/CDK9 were purchased from Carna Company; Carliper substrate CTD3/substrate 18/substrate 8 were purchased from Gil Biochemical Company; Dinaciclib/Palbociclib were purchased from Selleckchem Company; DMSO was purchased from Sigma Company; 384-well plates were purchased from Corning Company. […]

Short answer for O=S(=O)(c1ccc(C23CCNCC2C3)cc1)N1CCC(Nc2ncc(C(F)(F)F)c(O[C@H]3CCOC3)n2)CC1 (some centres unmarked) : IC50 was 0.5 to 2.5 nM

Short answer for `O=S(=O)(c1ccc(N2CCNCC2)cn1)N1CCC(Nc2ncc(C(F)(F)F)c(O[C@H]3CCOC3)n2)CC1` : IC50 was 0.5 to 2.5 nM

Short answer for `O=S(=O)(c1cccc(N2CCNCC2)c1)N1CCC(Nc2ncc(C(F)(F)F)c(O[C@H]3CCOC3)n2)CC1` : IC50 was 10 to 50 nM

Short answer for `C[C@@H]1CN(c2ccc(S(=O)(=O)N3CCC(Nc4ncc(C(F)(F)F)c(O[C@H]5CCOC5)n4)CC3)cn2)C[C@@H](C)N1` : IC50 was 0.5 to 2.5 nM

Short answer for `CN1CC=C(c2ccc(S(=O)(=O)N3CCC(Nc4ncc(C#N)c(NC5CCCC5)n4)CC3)cc2)CC1` : IC50 was 0.5 to 2.5 nM

----------
Give measured IC50 for each item. Keep answers brief.
Biological target: CDK9 (Homo sapiens)
Construct: purchased Carna Company
Sequence (P50750 whole entry): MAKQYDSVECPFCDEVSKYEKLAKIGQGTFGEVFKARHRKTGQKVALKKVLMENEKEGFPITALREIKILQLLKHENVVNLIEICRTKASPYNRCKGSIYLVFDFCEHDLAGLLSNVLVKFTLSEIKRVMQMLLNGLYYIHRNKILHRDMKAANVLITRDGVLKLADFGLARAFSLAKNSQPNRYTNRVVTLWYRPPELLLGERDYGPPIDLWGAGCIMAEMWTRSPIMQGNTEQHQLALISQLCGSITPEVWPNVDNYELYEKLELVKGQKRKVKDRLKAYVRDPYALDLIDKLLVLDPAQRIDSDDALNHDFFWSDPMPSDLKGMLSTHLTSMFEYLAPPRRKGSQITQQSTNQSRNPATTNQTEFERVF
Sequence (O60563 whole entry partner): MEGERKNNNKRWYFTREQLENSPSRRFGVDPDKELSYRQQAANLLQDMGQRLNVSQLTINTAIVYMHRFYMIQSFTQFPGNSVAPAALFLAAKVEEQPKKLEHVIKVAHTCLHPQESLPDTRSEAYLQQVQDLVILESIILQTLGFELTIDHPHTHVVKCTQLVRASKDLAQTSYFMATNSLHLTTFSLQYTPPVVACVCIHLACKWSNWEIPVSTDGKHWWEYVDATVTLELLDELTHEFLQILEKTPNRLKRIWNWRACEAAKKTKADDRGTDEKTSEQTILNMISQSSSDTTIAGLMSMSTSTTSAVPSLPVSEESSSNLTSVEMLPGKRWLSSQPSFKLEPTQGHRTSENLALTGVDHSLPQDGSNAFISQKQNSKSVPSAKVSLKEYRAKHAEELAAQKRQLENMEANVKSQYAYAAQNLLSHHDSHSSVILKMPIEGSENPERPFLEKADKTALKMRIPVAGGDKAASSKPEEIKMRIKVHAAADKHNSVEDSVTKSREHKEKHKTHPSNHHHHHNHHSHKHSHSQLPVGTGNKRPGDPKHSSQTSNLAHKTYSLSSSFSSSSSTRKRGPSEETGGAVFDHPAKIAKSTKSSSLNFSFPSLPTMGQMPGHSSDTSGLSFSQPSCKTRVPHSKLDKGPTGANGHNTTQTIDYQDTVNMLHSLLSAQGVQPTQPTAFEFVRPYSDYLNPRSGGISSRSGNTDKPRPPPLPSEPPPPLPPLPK
Assay: CDK enzymology experiment in vitro, capillary mobility shift assay (MSA)
Assay type: biochemical
Settings: read-out: CDK9 (nM) inhibitory IC50

Short answer for `O=S(=O)(c1ccc(N2CC[C@H](O)C2)cc1)N1CCC(Nc2ncc(C(F)(F)F)c(O[C@H]3CCOC3)n2)CC1` : IC50 was 100 to 1000 nM

Short answer for `Cn1cc(S(=O)(=O)N2CCC(Nc3ncc(C#N)c(N[C@H]4CCOC4)n3)CC2)cn1` : IC50 was > 1000 nM

Short answer for `Cn1cnc(S(=O)(=O)N2CCC(Nc3ncc(C#N)c(NC4CCCC4)n3)CC2)c1` : IC50 was 100 to 1000 nM

Short answer for `Cn1cc(-c2ccc(S(=O)(=O)N3CCC(Nc4ncc(C#N)c(N[C@H]5CCOC5)n4)CC3)cc2)cn1` : IC50 was 100 to 1000 nM

Short answer for `N#Cc1cnc(NC2CCN(S(=O)(=O)c3ccc(C4=CCNCC4)cc3)CC2)nc1NC1CCCC1` : IC50 was 100 to 1000 nM

Short answer for `O=S(=O)(c1ccc(C2CCNCC2)c(F)c1)N1CCC(Nc2ncc(C(F)(F)F)c(O[C@H]3CCOC3)n2)CC1` : IC50 was 100 to 1000 nM

Short answer for O=S(=O)(c1ccc(N2CCNC(C(F)(F)F)C2)cc1)N1CCC(Nc2ncc(C(F)(F)F)c(O[C@H]3CCOC3)n2)CC1 (stereo partly shown) : IC50 was 50 to 100 nM

Short answer for O=S(=O)(c1ccc([C@@H]2CCNC2)cc1)N1CCC(Nc2ncc(C(F)(F)F)c(O[C@H]3CCOC3)n2)CC1 (single isomer, unassigned) : IC50 was 100 to 1000 nM

Short answer for `CN(C)C1CCN(c2ccc(S(=O)(=O)N3CCC(Nc4ncc(C(F)(F)F)c(O[C@H]5CCOC5)n4)CC3)cc2)CC1` : IC50 was 100 to 1000 nM

Short answer for `CS(=O)(=O)N1CCC(Nc2ncc(C(F)(F)F)c(NC3CCCC3)n2)CC1` : IC50 was 100 to 1000 nM
